Value source: the supplement of paper PMC10567573

B1: SMOC2 (parent)
chain: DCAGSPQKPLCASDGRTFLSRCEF

Variants of: B1
MEASUREMENT DESCRIPTION: protein stability index of a GFP-peptide fusion (GPS, HEK-293T) (PSI 1-6); higher = more stable;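 further: lentivirally expressed fusions sorted by FACS into six bins by GFP to DsRed ratio, PSI derived from sequencing read proportions per bin multiplied by bin number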
MEASUREMENT PARAMETERS: c terminus: a fixed tail appended
RECORDED ENDPOINT: protein stability index
Format: numeric value only, no unit, no commentary.

The examples below pair each entry with its known result.
Request: Given `L19N` , state its recorded protein stability index.
Response: 4.01

Request: Given `C2F` , state its recorded protein stability index.
Response: 3.25

Request: Given `S20M` , state its recorded protein stability index.
Response: 1.41

Request: Given `A3I` , state its recorded protein stability index.
Response: 2.71

Request: Given `G4W` , state its recorded protein stability index.
Response: 2.32

Request: Given `F24M` , state its recorded protein stability index.
Response: 2.72

Request: Given `S20P` , state its recorded protein stability index.
Response: 3.59

Request: Given `S5K` , state its recorded protein stability index.
Response: 2.72

***
Request: Given `D14I` , state its recorded protein stability index.
Response: 2.12

Request: Given `Q7E` , state its recorded protein stability index.
Response: 1.81
